Reported Inhibitory activity (% of control), ROCK-II(h) values are given for each entry in this list.
experimental target: ROCK-II(h) (Homo sapiens, UniProt O75116)
Sequence (O75116 whole entry): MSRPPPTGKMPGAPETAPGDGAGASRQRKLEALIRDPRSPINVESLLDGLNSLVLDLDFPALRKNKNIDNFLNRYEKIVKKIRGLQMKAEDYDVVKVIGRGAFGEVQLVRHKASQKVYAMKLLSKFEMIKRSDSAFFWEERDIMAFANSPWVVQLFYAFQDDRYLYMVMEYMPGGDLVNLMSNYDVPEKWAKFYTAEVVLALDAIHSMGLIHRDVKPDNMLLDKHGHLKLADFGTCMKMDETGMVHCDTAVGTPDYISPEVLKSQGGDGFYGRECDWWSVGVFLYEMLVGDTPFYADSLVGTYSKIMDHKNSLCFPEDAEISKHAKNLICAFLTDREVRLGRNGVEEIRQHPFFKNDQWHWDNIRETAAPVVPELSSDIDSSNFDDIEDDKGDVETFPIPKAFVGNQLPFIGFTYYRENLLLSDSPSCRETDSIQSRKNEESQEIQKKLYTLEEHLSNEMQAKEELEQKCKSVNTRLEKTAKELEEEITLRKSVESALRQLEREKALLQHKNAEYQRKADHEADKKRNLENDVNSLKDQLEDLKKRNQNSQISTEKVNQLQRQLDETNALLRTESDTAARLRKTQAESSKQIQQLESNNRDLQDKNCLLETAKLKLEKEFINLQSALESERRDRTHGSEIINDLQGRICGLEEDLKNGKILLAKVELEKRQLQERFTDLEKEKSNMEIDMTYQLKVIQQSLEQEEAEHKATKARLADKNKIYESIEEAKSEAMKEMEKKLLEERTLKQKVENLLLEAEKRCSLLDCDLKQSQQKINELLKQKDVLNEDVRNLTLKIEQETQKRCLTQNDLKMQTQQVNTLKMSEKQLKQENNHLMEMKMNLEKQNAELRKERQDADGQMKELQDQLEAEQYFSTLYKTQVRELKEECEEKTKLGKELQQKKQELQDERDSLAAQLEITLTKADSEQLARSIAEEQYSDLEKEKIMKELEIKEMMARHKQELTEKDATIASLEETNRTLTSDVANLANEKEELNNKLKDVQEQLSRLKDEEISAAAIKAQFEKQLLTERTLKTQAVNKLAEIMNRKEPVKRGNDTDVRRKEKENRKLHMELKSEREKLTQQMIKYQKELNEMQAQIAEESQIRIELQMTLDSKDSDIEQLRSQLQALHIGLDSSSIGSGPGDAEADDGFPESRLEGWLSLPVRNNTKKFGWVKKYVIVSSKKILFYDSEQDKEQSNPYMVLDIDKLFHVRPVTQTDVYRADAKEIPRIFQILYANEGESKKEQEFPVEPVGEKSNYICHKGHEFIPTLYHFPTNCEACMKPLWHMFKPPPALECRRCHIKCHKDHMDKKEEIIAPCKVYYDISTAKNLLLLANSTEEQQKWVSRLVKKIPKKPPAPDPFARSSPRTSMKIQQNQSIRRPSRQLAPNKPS
assay text: ROCK-II(h) kinase assay
Format: biochemical
stated conditions: 3 μM; percent of control kinase activity

Sample records with Inhibitory activity (% of control), ROCK-II(h):
>  <compound>
O=C(NC1CCCC1)c1cccc(-c2n[nH]c3ccc(-c4nc[nH]n4)cc23)c1 [CC007, reference compound]

>  <result>
69 % of control

$$$$
>  <compound>
Fc1ccc(-c2n[nH]c3ccc(-c4n[nH]c(C5CCCC5)n4)cc23)cc1 [CC006, reference compound]

>  <result>
13 % of control

$$$$
>  <compound>
CC(C)(C)Cc1nc(-c2ccc3[nH]nc(-c4ccc5cc(OCc6ccccn6)ccc5c4)c3c2)n[nH]1

>  <result>
5 % of control

$$$$
>  <compound>
CC(C)Cc1nc(-c2ccc3[nH]nc(-c4ccc5cc(OCCN6CCCC6)ccc5c4)c3c2)n[nH]1

>  <result>
2 % of control

$$$$
>  <compound>
COc1ccc2cc(-c3n[nH]c4ccc(-c5n[nH]c(CN6CCOCC6)n5)cc34)ccc2c1

>  <result>
4 % of control

$$$$

Note down Inhibitory activity (% of control), ROCK-II(h) recorded for CCN1CCC[C@H]1COc1ccc2cc(-c3n[nH]c4ccc(-c5nc(CC(C)(C)C)n[nH]5)cc34)ccc2c1
2 % of control

----------
experimental target: Fyn(h) (Homo sapiens)
Sequence (P06241 whole entry): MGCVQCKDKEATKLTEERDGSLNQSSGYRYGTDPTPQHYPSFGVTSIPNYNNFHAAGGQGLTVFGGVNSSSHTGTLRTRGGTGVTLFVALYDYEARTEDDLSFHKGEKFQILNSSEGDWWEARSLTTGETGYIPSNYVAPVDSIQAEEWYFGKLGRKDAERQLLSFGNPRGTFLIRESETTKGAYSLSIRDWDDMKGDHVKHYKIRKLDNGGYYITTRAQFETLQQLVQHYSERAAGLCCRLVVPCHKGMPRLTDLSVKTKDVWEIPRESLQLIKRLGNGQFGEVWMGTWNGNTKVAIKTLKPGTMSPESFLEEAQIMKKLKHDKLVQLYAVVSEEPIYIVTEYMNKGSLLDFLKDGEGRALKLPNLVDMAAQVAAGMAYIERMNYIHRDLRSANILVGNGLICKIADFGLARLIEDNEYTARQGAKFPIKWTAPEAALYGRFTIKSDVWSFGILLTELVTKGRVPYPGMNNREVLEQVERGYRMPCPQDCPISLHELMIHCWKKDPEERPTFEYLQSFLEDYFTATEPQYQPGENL
assay text: Fyn(h) kinase assay
Format: biochemical
stated conditions: 3 μM; percent of control kinase activity
measured attribute: Inhibitory activity (% of control), Fyn(h)

Sample records with Inhibitory activity (% of control), Fyn(h):
>  <compound>
CC(C)Cc1nc(-c2ccc3[nH]nc(-c4ccc5cc(OCCN6CCCC6)ccc5c4)c3c2)n[nH]1

>  <result>
4 % of control

$$$$
>  <compound>
COc1ccc2cc(-c3n[nH]c4ccc(-c5n[nH]c(CN6CCOCC6)n5)cc34)ccc2c1

>  <result>
14 % of control

$$$$
>  <compound>
CCN1CCC[C@H]1COc1ccc2cc(-c3n[nH]c4ccc(-c5nc(CC(C)(C)C)n[nH]5)cc34)ccc2c1

>  <result>
4 % of control

$$$$

Note down Inhibitory activity (% of control), Fyn(h) recorded for CC(C)(C)Cc1nc(-c2ccc3[nH]nc(-c4ccc5cc(OCc6ccccn6)ccc5c4)c3c2)n[nH]1
67 % of control

Note down Inhibitory activity (% of control), Fyn(h) recorded for Fc1ccc(-c2n[nH]c3ccc(-c4n[nH]c(C5CCCC5)n4)cc23)cc1 [CC006, reference compound]
65 % of control

Note down Inhibitory activity (% of control), Fyn(h) recorded for O=C(NC1CCCC1)c1cccc(-c2n[nH]c3ccc(-c4nc[nH]n4)cc23)c1 [CC007, reference compound]
66 % of control

----------
Reported Inhibitory activity (% of control), Rsk3(h) values are given for each entry in this list.
experimental target: Rsk3(h) (Homo sapiens, UniProt Q15349)
Sequence (Q15349 whole entry): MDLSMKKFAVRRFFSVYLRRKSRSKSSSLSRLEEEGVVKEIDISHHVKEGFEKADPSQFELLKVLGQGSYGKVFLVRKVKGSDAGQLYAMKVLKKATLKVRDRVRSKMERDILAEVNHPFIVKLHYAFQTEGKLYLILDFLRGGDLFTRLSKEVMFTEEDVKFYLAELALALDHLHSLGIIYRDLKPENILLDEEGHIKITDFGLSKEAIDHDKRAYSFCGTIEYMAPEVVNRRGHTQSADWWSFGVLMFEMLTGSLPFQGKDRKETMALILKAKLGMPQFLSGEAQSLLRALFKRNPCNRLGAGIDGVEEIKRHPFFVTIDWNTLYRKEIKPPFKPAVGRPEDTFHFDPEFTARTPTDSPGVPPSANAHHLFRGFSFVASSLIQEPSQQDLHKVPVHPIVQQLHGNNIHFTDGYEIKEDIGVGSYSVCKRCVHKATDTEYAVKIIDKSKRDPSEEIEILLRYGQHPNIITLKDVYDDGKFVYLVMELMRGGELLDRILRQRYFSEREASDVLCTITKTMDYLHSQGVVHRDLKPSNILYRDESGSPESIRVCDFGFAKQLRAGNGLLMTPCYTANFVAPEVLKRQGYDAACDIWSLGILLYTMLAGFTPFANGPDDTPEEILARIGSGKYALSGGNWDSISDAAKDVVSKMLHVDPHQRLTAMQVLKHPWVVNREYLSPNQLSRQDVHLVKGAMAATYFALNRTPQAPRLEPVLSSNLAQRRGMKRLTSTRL
assay text: Rsk3(h) kinase assay
Format: biochemical
stated conditions: 3 μM; percent of control kinase activity

Sample records with Inhibitory activity (% of control), Rsk3(h):
>  <compound>
O=C(NC1CCCC1)c1cccc(-c2n[nH]c3ccc(-c4nc[nH]n4)cc23)c1 [CC007, reference compound]

>  <result>
38 % of control

$$$$
>  <compound>
CC(C)(C)Cc1nc(-c2ccc3[nH]nc(-c4ccc5cc(OCc6ccccn6)ccc5c4)c3c2)n[nH]1 [CC004]

>  <result>
43 % of control

$$$$
>  <compound>
CCN1CCC[C@H]1COc1ccc2cc(-c3n[nH]c4ccc(-c5nc(CC(C)(C)C)n[nH]5)cc34)ccc2c1 [CC005]

>  <result>
4 % of control

$$$$
>  <compound>
CC(C)Cc1nc(-c2ccc3[nH]nc(-c4ccc5cc(OCCN6CCCC6)ccc5c4)c3c2)n[nH]1 [CC002]

>  <result>
5 % of control

$$$$
>  <compound>
Fc1ccc(-c2n[nH]c3ccc(-c4n[nH]c(C5CCCC5)n4)cc23)cc1 [CC006, reference compound]

>  <result>
39 % of control

$$$$

With Rsk3(h) (Homo sapiens, UniProt Q15349) as the test system, provide measured Inhibitory activity (% of control), Rsk3(h) for this compound: COc1ccc2cc(-c3n[nH]c4ccc(-c5n[nH]c(CN6CCOCC6)n5)cc34)ccc2c1 [CC001]
4 % of control

Where do the numbers come from? From patent US20050107386A1.
